Molecular target: Cyclin-dependent kinase 5/CDK5 activator 1 (Homo sapiens) (UniProt Q00535+Q15078)
Sequence (Q00535 whole entry): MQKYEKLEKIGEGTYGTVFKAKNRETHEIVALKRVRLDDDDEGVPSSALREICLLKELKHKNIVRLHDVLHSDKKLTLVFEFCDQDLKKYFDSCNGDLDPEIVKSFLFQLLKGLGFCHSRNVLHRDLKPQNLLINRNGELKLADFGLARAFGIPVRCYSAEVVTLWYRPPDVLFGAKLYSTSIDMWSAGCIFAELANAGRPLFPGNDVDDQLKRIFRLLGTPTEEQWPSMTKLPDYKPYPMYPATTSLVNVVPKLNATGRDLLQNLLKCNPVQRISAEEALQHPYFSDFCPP
Sequence (Q15078 99-307 partner limits assumed): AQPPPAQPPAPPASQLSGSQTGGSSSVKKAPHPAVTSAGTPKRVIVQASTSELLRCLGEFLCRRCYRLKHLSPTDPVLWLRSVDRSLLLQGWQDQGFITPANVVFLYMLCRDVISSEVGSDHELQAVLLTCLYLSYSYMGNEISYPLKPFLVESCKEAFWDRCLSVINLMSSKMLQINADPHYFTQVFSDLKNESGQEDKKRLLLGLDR
Experiment: Inhibition of Cyclin-dependent kinase 5 (CDK5) at 10 uM
Assay type: protein-complex assay
readout label: inhibition (%)

(P) CCOC(=O)c1cnc2oc3ccc(O)cc3c2c1-c1ccccc1
(Q) CC(=O)c1cnc2oc3ccc(O)cc3c2c1C
(R) CCOC(=O)c1cnc2oc3ccc(O)cc3c2c1C
(S) CC(=O)c1cnc2oc3ccc(O)cc3c2c1-c1ccccc1
List these items ordered by inhibition, big to small. Respond with an ordered listing of the labels, as requested.
S, Q, P, R
(S: 15%, Q: 10%, P: 6%, R: 3%)

---

System: IGROV-1
Experiment: Inhibition of ovarian cancer IGROVI cell proliferation
Format: functional
Settings: Homo sapiens
Collected GI50 values appear next to each entry.
Answer format: numeric, µM implied, no suffix.

# example entries with known answers
>>> recorded_measurement("CCOC(=O)c1cnc2oc3ccc(O)cc3c2c1-c1ccccc1")
2.51
>>> recorded_measurement("CCOC(=O)c1cnc2oc3ccc(O)cc3c2c1C")
79.4

Now take the following compound into account.
GI50 recorded for this compound, CC(=O)c1cnc2oc3ccc(O)cc3c2c1-c1ccccc1 , is 5.01
